- Test system: HT-29 cells
- test-name: HT29 cells 0FBS assay in vitro: TNF-α/SMAC mimetic/zVAD-FMK induced necroptosis, CellTiter-Glo cell viability (RIP1 inhibitory activity)
- Assay type: cell-based
- applied-conditions: Homo sapiens, FBS free medium, TNF-α (10 ng/ml) + SMAC mimetic (6 uM) + zVAD-FMK (10 μM), 20 hours, geometric mean EC50
pEC50: −log10 of the molar value.
measurement-label: pEC50

molecule	result
Cc1ncc([C@@H]2CC=NN2C(=O)N2CC(Oc3cc(-c4c(C)cnn4C)ncc3F)C2)s1 [Compound 108]	7.00 to 10.00
Cc1ncsc1-c1cc(OC2CN(C(=O)N3N=CC[C@H]3c3cc(F)cc(C#N)c3)C2)c(F)cn1 [Compound 18]	7.00 to 10.00
Cc1cc[nH]c(=O)c1-c1cc(OC2CN(C(=O)N3N=CC[C@H]3c3cc(F)cc(F)c3)C2)c(F)cn1 [Compound 166]	6.00 to 7.00
Cc1nn(-c2cc(OC3CN(C(=O)N4N=CC[C@@H]4c4cc(F)cc(F)c4F)C3)c(F)cn2)c(C)c1S(N)(=O)=O [Compound 125]	6.00 to 7.00
Cn1nc(N)cc1-c1cc(OC2CN(C(=O)N3N=CC[C@H]3c3cc(F)cc(C#N)c3)C2)c(F)cn1 [Compound 35]	7.00 to 10.00
Cn1ncc(C#N)c1-c1ccc(F)c(OC2CN(C(=O)N3N=CC[C@H]3c3cncc(C#N)c3)C2)n1 [Compound 41]	7.00 to 10.00

Moving on to another molecule below.
Qu. Name the reported pEC50 value associated with the molecule Cc1nn(-c2cc(OC3CN(C(=O)N4N=CC[C@H]4c4cc(F)cc(F)c4F)C3)c(F)cn2)c(C)c1C(N)=O [Compound 102]
Ans. 7.00 to 10.00
